Exercise: for every item that follows, state its recorded cytotoxicity at 70.5 h.
- Assay Comment: Human HepG2 cell viability assay in 384 well format
- Assay type: toxicity, cell-based
- Parameters: dose 125 nL, time 70.5 hour; concentration not given beside the values
- Details: HepG2 cells, read-out: Inhibition
Only the number, expressed in %, is required.

Entry C[S+]([O-])c1nncn1CC(=O)c1cccc(Cl)c1 (stereo unspecified) — recorded cytotoxicity at 70.5 h = -7.53

Reported cytotoxicity at 70.5 h ( O=C([C@H]1COC[C@H]2CN(c3ncc(F)cn3)C[C@H]21)N1CCOCC1 ) = -7.81

Memo: CCn1cnnc1CNC(=O)N(C)Cc1ccc2c(c1)OCO2 , reported cytotoxicity at 70.5 h: -10.2

For record O=C(O)C1c2nc[nH]c2CCN1Cc1ccc(-c2ccccc2)s1 (stereo unspecified) the listed cytotoxicity at 70.5 h is -4.04

# compound COC(=O)c1ccc(C(=O)NCc2nn(C)c3c2COCC3)cc1 ; its cytotoxicity at 70.5 h = -4.89

Measured cytotoxicity at 70.5 h of O=C1CC[C@H]2CN(c3ncccc3F)CC[C@H]2N1CCc1ccccc1 : 17.3

Recorded result, CCc1ccc(C(=O)N2CCCC(n3nc(C)nc3C)C2)o1 (stereo unspecified) , cytotoxicity at 70.5 h: 13.2

cytotoxicity at 70.5 h measured on Cc1nn(C)c(C)c1OCC(=O)N1CCC(O)(C(F)(F)F)CC1 = -6.23

// sample CC(=O)N(C)c1nc(CN2CCN(c3nccs3)CC2)cs1 , its cytotoxicity at 70.5 h was -5.68

Noted for CC(C)=CCN1C[C@H]2CC[C@@H]1CN(Cc1coc(C)n1)C2 : its cytotoxicity at 70.5 h reads -5.37

Reported cytotoxicity at 70.5 h ( CC1(NC(=O)Cc2csc(-c3ccccc3Cl)n2)CCS(=O)(=O)C1 (stereo unspecified) ) = -88.9

Values compiled from ChEMBL document CHEMBL3507680.
